tgt: UniProtKB P43116
measurement_notes: hEP2 b-arrestin assay (PathHunter HEK 293 PTGER2 b-arrestin cells)
condition_set: antagonistic activity, beta-arrestin assay; read-out: hEP2 b-arr IC50
In this section we review reported pIC50 values for a set of molecules.
Note on pIC50: it is the negative log10 of concentration, concentration in mol/L.

Some solved cases for reference:
INSERT INTO assay_data (substance_smiles, recorded_result) VALUES
  ('CCOc1cc(-c2cc(NCCc3cc4c(cc3OC)OCO4)ncn2)ccc1C(=O)O', 6.87),
  ('Cc1c(CCNc2cc(-c3ccc(C(=O)O)c(OC4CC4)c3)ncn2)ccc2ccccc12', 7.51),
  ('CCCc1cc(-c2cc(NCCc3cc(F)c4sccc4c3)ncn2)ccc1C(=O)NC', 6.26),
  ('Cc1c(CCNc2cc(-c3ccc(CC(=O)O)c(OC(F)(F)F)c3)ncn2)ccc2c1OCCO2', 7.54);

Briefly, pIC50 measured for CCOc1cc(-c2cc(NCCc3ccc4sccc4c3F)ncn2)ccc1C(=O)O : 7.11

Briefly, pIC50 measured for COc1c(CCNc2cc(-c3cc(F)c(C(=O)O)c(OC4CCC4)c3)ncn2)c(F)c(F)c2cc(C)oc12 : 5.89

Briefly, pIC50 measured for CCOc1cc(-c2cc(NCCc3c(OC)cc4ccccc4c3C)ncn2)ccc1OCCC(=O)O : 7.31

Briefly, pIC50 measured for CCOc1cc(-c2cc(NCCc3cc(F)c4cc(C)sc4c3OC)ncn2)sc1C(=O)O : 6.37

====

tgt: EP4 (Homo sapiens (Human))
Sequence (P35408 whole entry): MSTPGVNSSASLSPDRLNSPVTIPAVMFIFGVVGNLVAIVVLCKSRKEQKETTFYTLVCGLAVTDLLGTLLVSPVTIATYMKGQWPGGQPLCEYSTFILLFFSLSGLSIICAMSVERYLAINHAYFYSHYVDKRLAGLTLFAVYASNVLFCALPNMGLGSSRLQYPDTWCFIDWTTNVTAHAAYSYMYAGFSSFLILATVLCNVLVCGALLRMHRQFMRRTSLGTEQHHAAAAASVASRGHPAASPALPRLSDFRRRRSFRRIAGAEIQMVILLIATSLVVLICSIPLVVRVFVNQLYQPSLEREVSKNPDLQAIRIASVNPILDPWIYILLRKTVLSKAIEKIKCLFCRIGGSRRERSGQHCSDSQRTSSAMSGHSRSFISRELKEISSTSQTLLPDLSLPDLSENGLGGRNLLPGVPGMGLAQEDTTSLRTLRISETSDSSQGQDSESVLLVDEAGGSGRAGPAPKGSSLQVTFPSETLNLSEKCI
measurement_notes: hEP4 cAMP assay (BT549 breast cancer cells, HTRF cAMP)
Format: cell-based
condition_set: antagonistic activity, PGE2 6 nM
In this section we review reported IC50 values for a set of compounds.
Your answer should be a plain number; it is taken to be in µM.

INSERT INTO measurements (substance_smiles, recorded_result) VALUES
  ('CCOc1cc(-c2cc(NCCc3cc4ccoc4cc3OC)ncn2)ccc1OCC(=O)O', 0.082),
  ('COc1cc2c(cc1CCNc1cc(-c3ccc4cc(C(=O)O)oc4c3)ncn1)OCCO2', 0.164),
  ('CCOc1cc(-c2cc(NCCc3ccc4sccc4c3)ncn2)ccc1OCC(=O)O', 0.093),
  ('CCOc1cc(-c2cc(NCCc3ccc4ccccc4c3C)ncn2)sc1CC(=O)O', 0.141);

Now for the compound whose IC50 we want.
Briefly, IC50 measured for CCOc1cc(-c2cc(NCCc3cc4c(cc3Cl)OC(F)(F)O4)ncn2)sc1C(=O)O : 0.164

====

tgt: EP2 (Homo sapiens (Human))
Sequence (P43116 whole entry): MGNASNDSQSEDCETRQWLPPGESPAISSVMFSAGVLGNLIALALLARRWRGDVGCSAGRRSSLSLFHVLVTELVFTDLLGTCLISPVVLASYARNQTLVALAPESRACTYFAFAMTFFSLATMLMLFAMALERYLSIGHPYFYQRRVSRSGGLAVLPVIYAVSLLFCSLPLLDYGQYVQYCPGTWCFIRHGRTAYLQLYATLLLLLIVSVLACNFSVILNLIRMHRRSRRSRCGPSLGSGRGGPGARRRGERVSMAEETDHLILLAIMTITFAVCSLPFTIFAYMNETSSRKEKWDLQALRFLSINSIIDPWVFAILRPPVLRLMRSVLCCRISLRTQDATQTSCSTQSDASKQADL
measurement_notes: hEP2 cAMP assay (SF295 glioblastoma cells, HTRF cAMP)
condition_set: antagonistic activity
Text: Human tumor cell lines expressing endogenously either EP4 or EP2 are used and cAMP accumulation in cells upon PGE2 stimulation is monitored. […] As a detection method for cAMP the HTRF (homogeneous time resolved fluorescence) Cisbio kit (HTRF cAMP dynamic 2 kit 20'000 tests Cisbio Cat. #62AM4PEC) was used, which is based on a competitive immunoassay using a Cryptate-labeled anti-cAMP antibody and d2-labeled cAMP. […]
In this section we review reported pIC50 values for a set of compounds.
Note on pIC50: it is the negative log10 of concentration, concentration in mol/L.

Some solved cases for reference:
INSERT INTO assay_data (compound, tgt, recorded_result) VALUES
  ('Fc1cc2ncccc2c(F)c1CCNc1cc(-c2ccc3cnccc3c2)ncn1 [Ex 318]', 'EP2 (Homo sapiens (Human))', 6.61),
  ('COc1cc2c(cc1CCNc1cc(-c3ccc(C(=O)O)c(SC)c3)ncn1)CCCN2 [Ex 329]', 'EP2 (Homo sapiens (Human))', 6.12),
  ('Oc1c(F)cc(-c2cc(NCCc3ccc4cc[nH]c4c3)ncn2)cc1F [Ex 307]', 'EP2 (Homo sapiens (Human))', 6.17),
  ('COc1cc2c(cc1CCNc1cc(-c3ccc(C(=O)O)c(SC)c3)ncn1)OCCO2 [Ex 116]', 'EP2 (Homo sapiens (Human))', 7.64);

Entry CCOc1cc(-c2cc(NCCc3cc4occc4cc3OC)ncn2)ccc1OCC(=O)O [Ex 159] ; assay system EP2 (Homo sapiens (Human)); pIC50 recorded at 6.75

Entry CCOc1cc(-c2cc(NCCc3cc4c(cnn4C)cc3OC)ncn2)ccc1OCC(=O)O [Ex 298] ; assay system EP2 (Homo sapiens (Human)); pIC50 recorded at 6.15

Entry CCOc1nc(-c2cc(NCCc3ccc4ccccc4c3C)ncn2)sc1-c1noc(=O)[nH]1 [Example 352] ; assay system EP2 (Homo sapiens (Human)); pIC50 recorded at 6.85
